Condition notes: in isopropanol, 278.15 K
Measured quantity: solubility (mole fraction)

INSERT INTO results (smiles_record, test_value) VALUES
  ('Cc1ccc(C(=O)O)cc1', 0.0397);

###

Condition notes: in n-butanol, 293.15 K
Measured quantity: solubility (mole fraction)

INSERT INTO measurements (smiles_record, test_value) VALUES
  ('Cc1ccc(C(=O)O)cc1', 0.051);

###

Condition notes: in isopropanol, 288.15 K
Measured quantity: solubility (mole fraction)

INSERT INTO results (smiles_record, measured_quantity, test_value) VALUES
  ('Cc1ccc(C(=O)O)cc1', 'solubility (mole fraction)', 0.0488);

###

Condition notes: in ethanol, 308.15 K
Measured quantity: solubility (mole fraction)

INSERT INTO measurements (smiles_record, measured_quantity, test_value) VALUES
  ('Cc1ccc(C(=O)O)cc1', 'solubility (mole fraction)', 0.0549);

###

Condition notes: in acetone, 308.15 K
Measured quantity: solubility (mole fraction)

INSERT INTO assay_data (smiles_record, measured_quantity, test_value) VALUES
  ('Cc1ccc(C(=O)O)cc1', 'solubility (mole fraction)', 0.0838);

###

Condition notes: in isopropanol, 293.15 K
Measured quantity: solubility (mole fraction)

INSERT INTO measurements (smiles_record, measured_quantity, test_value) VALUES
  ('Cc1ccc(C(=O)O)cc1', 'solubility (mole fraction)', 0.0528);

###

Condition notes: in isopropanol, 318.15 K
Measured quantity: solubility (mole fraction)

INSERT INTO results (smiles_record, measured_quantity, test_value) VALUES
  ('Cc1ccc(C(=O)O)cc1', 'solubility (mole fraction)', 0.0868);

###

Condition notes: in n-butanol, 313.15 K
Measured quantity: solubility (mole fraction)

INSERT INTO results (smiles_record, measured_quantity, test_value) VALUES
  ('Cc1ccc(C(=O)O)cc1', 'solubility (mole fraction)', 0.0836);

###

Condition notes: in acetonitrile, 283.15 K
Measured quantity: solubility (mole fraction)

INSERT INTO assay_data (smiles_record, test_value) VALUES
  ('Cc1ccc(C(=O)O)cc1', 0.0068);

###

Condition notes: in n-butanol, 278.15 K
Measured quantity: solubility (mole fraction)

INSERT INTO measurements (smiles_record, test_value) VALUES
  ('Cc1ccc(C(=O)O)cc1', 0.0359);

###

Condition notes: in n-butanol, 303.15 K
Measured quantity: solubility (mole fraction)

INSERT INTO results (smiles_record, test_value) VALUES
  ('Cc1ccc(C(=O)O)cc1', 0.0651);

###

Condition notes: in ethanol, 318.15 K
Measured quantity: solubility (mole fraction)

INSERT INTO assay_data (smiles_record, test_value) VALUES
  ('Cc1ccc(C(=O)O)cc1', 0.0684);

###

Condition notes: in methanol, 283.15 K
Measured quantity: solubility (mole fraction)

INSERT INTO assay_data (smiles_record, test_value) VALUES
  ('Cc1ccc(C(=O)O)cc1', 0.041);

###

Condition notes: in ethanol, 288.15 K
Measured quantity: solubility (mole fraction)

INSERT INTO results (smiles_record, measured_quantity, test_value) VALUES
  ('Cc1ccc(C(=O)O)cc1', 'solubility (mole fraction)', 0.0346);

###

Condition notes: in acetonitrile, 293.15 K
Measured quantity: solubility (mole fraction)

INSERT INTO assay_data (smiles_record, test_value) VALUES
  ('Cc1ccc(C(=O)O)cc1', 0.0087);

###

Condition notes: in ethanol, 303.15 K
Measured quantity: solubility (mole fraction)

INSERT INTO assay_data (smiles_record, measured_quantity, test_value) VALUES
  ('Cc1ccc(C(=O)O)cc1', 'solubility (mole fraction)', 0.05);

###

Condition notes: in ethanol, 298.15 K
Measured quantity: solubility (mole fraction)

INSERT INTO assay_data (smiles_record, measured_quantity, test_value) VALUES
  ('Cc1ccc(C(=O)O)cc1', 'solubility (mole fraction)', 0.0442);

###

Condition notes: in methanol, 308.15 K
Measured quantity: solubility (mole fraction)

INSERT INTO results (smiles_record, test_value) VALUES
  ('Cc1ccc(C(=O)O)cc1', 0.0865);

###

Condition notes: in acetone, 313.15 K
Measured quantity: solubility (mole fraction)

INSERT INTO assay_data (smiles_record, measured_quantity, test_value) VALUES
  ('Cc1ccc(C(=O)O)cc1', 'solubility (mole fraction)', 0.0943);

###

Condition notes: in methanol, 298.15 K
Measured quantity: solubility (mole fraction)

INSERT INTO results (smiles_record, measured_quantity, test_value) VALUES
  ('Cc1ccc(C(=O)O)cc1', 'solubility (mole fraction)', 0.0636);

###

Condition notes: in methanol, 318.15 K
Measured quantity: solubility (mole fraction)

INSERT INTO measurements (smiles_record, test_value) VALUES
  ('Cc1ccc(C(=O)O)cc1', 0.115);

###

Condition notes: in isopropanol, 303.15 K
Measured quantity: solubility (mole fraction)

INSERT INTO results (smiles_record, measured_quantity, test_value) VALUES
  ('Cc1ccc(C(=O)O)cc1', 'solubility (mole fraction)', 0.0648);

###

Condition notes: in methanol, 278.15 K
Measured quantity: solubility (mole fraction)

INSERT INTO measurements (smiles_record, test_value) VALUES
  ('Cc1ccc(C(=O)O)cc1', 0.0354);

###

Condition notes: in methanol, 288.15 K
Measured quantity: solubility (mole fraction)

INSERT INTO measurements (smiles_record, test_value) VALUES
  ('Cc1ccc(C(=O)O)cc1', 0.0485);

###

Condition notes: in methanol, 293.15 K
Measured quantity: solubility (mole fraction)

INSERT INTO results (smiles_record, test_value) VALUES
  ('Cc1ccc(C(=O)O)cc1', 0.0568);

###

Condition notes: in acetone, 323.15 K
Measured quantity: solubility (mole fraction)

INSERT INTO measurements (smiles_record, test_value) VALUES
  ('Cc1ccc(C(=O)O)cc1', 0.125);

###

Condition notes: in acetone, 278.15 K
Measured quantity: solubility (mole fraction)

INSERT INTO assay_data (smiles_record, test_value) VALUES
  ('Cc1ccc(C(=O)O)cc1', 0.0354);

###

Condition notes: in isopropanol, 283.15 K
Measured quantity: solubility (mole fraction)

INSERT INTO measurements (smiles_record, test_value) VALUES
  ('Cc1ccc(C(=O)O)cc1', 0.0437);

###

Condition notes: in acetone, 318.15 K
Measured quantity: solubility (mole fraction)

INSERT INTO assay_data (smiles_record, measured_quantity, test_value) VALUES
  ('Cc1ccc(C(=O)O)cc1', 'solubility (mole fraction)', 0.11);

###

Condition notes: in acetone, 288.15 K
Measured quantity: solubility (mole fraction)

INSERT INTO measurements (smiles_record, test_value) VALUES
  ('Cc1ccc(C(=O)O)cc1', 0.0469);

###

Condition notes: in acetonitrile, 288.15 K
Measured quantity: solubility (mole fraction)

INSERT INTO measurements (smiles_record, test_value) VALUES
  ('Cc1ccc(C(=O)O)cc1', 0.00776);

###

Condition notes: in isopropanol, 323.15 K
Measured quantity: solubility (mole fraction)

INSERT INTO assay_data (smiles_record, test_value) VALUES
  ('Cc1ccc(C(=O)O)cc1', 0.0959);

###

Condition notes: in acetonitrile, 318.15 K
Measured quantity: solubility (mole fraction)

INSERT INTO assay_data (smiles_record, test_value) VALUES
  ('Cc1ccc(C(=O)O)cc1', 0.0163);

###

Condition notes: in n-butanol, 298.15 K
Measured quantity: solubility (mole fraction)

INSERT INTO measurements (smiles_record, test_value) VALUES
  ('Cc1ccc(C(=O)O)cc1', 0.0578);

###

Condition notes: in methanol, 323.15 K
Measured quantity: solubility (mole fraction)

INSERT INTO assay_data (smiles_record, measured_quantity, test_value) VALUES
  ('Cc1ccc(C(=O)O)cc1', 'solubility (mole fraction)', 0.132);
